Assay Summary: protein stability index of a GFP-peptide fusion (yeast GPS) (PSI 1-4); higher = more stable; sorted into four equal gates, so the index is relative within each strain
Setup Conditions: san1∆
Would you kindly list protein stability index for each of these sequences?
Please reply with the number alone, leaving off any unit.

In: Consider the sequence FGVPNSSKNETSKPVFS [YLR335W/NUP2] and give its recorded protein stability index.
Out: 2.55

In: Consider the sequence EKAKSAGTQSSKFSKQQ [RPL24A] and give its recorded protein stability index.
Out: 3.32

In: Consider the sequence KKLVWPLHLIFAQPVAD [SSN2] and give its recorded protein stability index.
Out: 1.26

In: Consider the sequence DSRKNREQSSNDSETHT [BRN1] and give its recorded protein stability index.
Out: 3.34

In: Consider the sequence LNKSDLLDKYGKTGLSN [YML103C/NUP188] and give its recorded protein stability index.
Out: 3.44

In: Consider the sequence PVTLAKVIKVLGRTGSR [RPS28A] and give its recorded protein stability index.
Out: 2.09

In: Consider the sequence ECYKQLFLTAPDSCNMQ [YCS4] and give its recorded protein stability index.
Out: 2.85

In: Consider the sequence LPSEERIQKIISKRKEE [YIL149C/MLP2] and give its recorded protein stability index.
Out: 1.41

In: Consider the sequence KVTLNKETQQYELEFDT [BRR2] and give its recorded protein stability index.
Out: 3.15

In: Consider the sequence SLTKDKSIRKDTVEEKK [SIR4] and give its recorded protein stability index.
Out: 3.1

In: Consider the sequence KKNSSRPMPPIRGPKRR [SMD3] and give its recorded protein stability index.
Out: 2.14

In: Consider the sequence YCDPNTQEIRPVNTGVL [RRP40] and give its recorded protein stability index.
Out: 2.62

In: Consider the sequence ELAINLIRFDESITKAM [SMC2] and give its recorded protein stability index.
Out: 2.62

In: Consider the sequence ELLRLANEQLKLFNRIV [CSN12] and give its recorded protein stability index.
Out: 1.64

In: Consider the sequence GRRLNIRQYALATAHIY [SSN8] and give its recorded protein stability index.
Out: 1.17

In: Consider the sequence PKSKSLPNEMSQNDGFV [RPO31] and give its recorded protein stability index.
Out: 3.38

In: Consider the sequence LLNINGSRKVAGILRGY [SMX2] and give its recorded protein stability index.
Out: 2.25

In: Consider the sequence DDSFSLLRIQMLLCVSY [PCI8] and give its recorded protein stability index.
Out: 2.08

In: Consider the sequence PSVGVKTMKTFVIHIQE [RPB5] and give its recorded protein stability index.
Out: 2.47

In: Consider the sequence GGDSDANGTFMDFGVDP [RPN10] and give its recorded protein stability index.
Out: 3.23

In: Consider the sequence DNKIDIYQIHIPYAAKL [RPB2] and give its recorded protein stability index.
Out: 3.15

In: Consider the sequence AVRLILPGELAKHAVSE [HTB1] and give its recorded protein stability index.
Out: 1.52

In: Consider the sequence DWQMMTSPVTGATEKRK [CSL4] and give its recorded protein stability index.
Out: 2.3

In: Consider the sequence VENGTTSIGIKCNDGVV [PRE10] and give its recorded protein stability index.
Out: 1.35

In: Consider the sequence QQQLQQNSKEKNGLGLN [MED2] and give its recorded protein stability index.
Out: 2.42

In: Consider the sequence DPDKLKPNDLVGVNKDS [RPT5] and give its recorded protein stability index.
Out: 3.34

In: Consider the sequence DANRNANNIVNIVSDAG [GRR1] and give its recorded protein stability index.
Out: 2.99

In: Consider the sequence SNEIKVTNDLDTSAEKD [SIR4] and give its recorded protein stability index.
Out: 3.26

In: Consider the sequence ADDVFTGTGLQDENIGL [RPC31] and give its recorded protein stability index.
Out: 3.21

In: Consider the sequence LPPNWKYESATASALVN [RPS13] and give its recorded protein stability index.
Out: 2.69

In: Consider the sequence PIRINSTEEIEYIELEY [YMR129W/POM152] and give its recorded protein stability index.
Out: 2.68

In: Consider the sequence DTAVKTAETGYIQRRLV [RPO21] and give its recorded protein stability index.
Out: 1.98

In: Consider the sequence DNEVQRTMLELITQLDG [RPT1] and give its recorded protein stability index.
Out: 2.79

In: Consider the sequence RQTTSNTGLLNKANIQA [RPN11] and give its recorded protein stability index.
Out: 3.17

In: Consider the sequence KSQEQREHSLQLFRTNK [PRP28] and give its recorded protein stability index.
Out: 2.88

In: Consider the sequence CLFENDLQRLKPLGLDR [ITC1] and give its recorded protein stability index.
Out: 3.15

In: Consider the sequence GTGLFGQQTAQPQQSTI [YGR119C/NUP57] and give its recorded protein stability index.
Out: 2.85

In: Consider the sequence PTPAIIKPKPLWSGKQI [RPO21] and give its recorded protein stability index.
Out: 2.48

In: Consider the sequence DEEMLTSCTIPKAVVDH [GAL11] and give its recorded protein stability index.
Out: 2.44

In: Consider the sequence DKDSTKEVASLPNKSTI [FAS2] and give its recorded protein stability index.
Out: 3.02

In: Consider the sequence LLRNLESKMRQQEAKYR [YDL088C/ASM4] and give its recorded protein stability index.
Out: 1.39

In: Consider the sequence EPDLESQISKAEMEADS [SMC4] and give its recorded protein stability index.
Out: 3.43

In: Consider the sequence VLKVDKRFMNTSQNPQR [BRR2] and give its recorded protein stability index.
Out: 3.21

In: Consider the sequence SVKESTGMSSMSPFLRK [SRB4] and give its recorded protein stability index.
Out: 2.1

In: Consider the sequence SATSTTEQTKSKNPLSL [YLR335W/NUP2] and give its recorded protein stability index.
Out: 2.58

In: Consider the sequence EENFEATRTLVASIQND [YCG1] and give its recorded protein stability index.
Out: 3

In: Consider the sequence THPKDTFYITREKYNMK [ARP9] and give its recorded protein stability index.
Out: 3.07

In: Consider the sequence SKKIVPSPKKVAIDQDK [SIR4] and give its recorded protein stability index.
Out: 2.59

In: Consider the sequence VRKETYSSYIYKVLKQT [HTB2] and give its recorded protein stability index.
Out: 3.24

In: Consider the sequence LKVLSEHLDCMNFISKE [PCI8] and give its recorded protein stability index.
Out: 3.2

In: Consider the sequence ISLSFSRPASYGYFSVG [SIR4] and give its recorded protein stability index.
Out: 1.81

In: Consider the sequence SFGNREEFINKLVKSMN [RPL7A] and give its recorded protein stability index.
Out: 2.29

In: Consider the sequence PFDDDEPPLSYEQHIEN [PRP8] and give its recorded protein stability index.
Out: 3.06

In: Consider the sequence PGDGSSYINVTFRAVVF [RPC25] and give its recorded protein stability index.
Out: 2.4

In: Consider the sequence ILLSHHRASPADVSIKS [POP5] and give its recorded protein stability index.
Out: 3.24

In: Consider the sequence WQSGLKMYDYEEKEESN [RPN11] and give its recorded protein stability index.
Out: 2.93

In: Consider the sequence MPKKRASNGRNKKGRGH [RPS26A] and give its recorded protein stability index.
Out: 2.82

In: Consider the sequence ADVLAMAKVEVNLAAIP [RIP1] and give its recorded protein stability index.
Out: 1.82

In: Consider the sequence DATFAGHSLGEYAALAS [FAS1] and give its recorded protein stability index.
Out: 2.83

In: Consider the sequence EDFQKRQQKLLEDQQRQ [SWI1] and give its recorded protein stability index.
Out: 3.14

The values you see were collected from the supplement of paper PMC9732359.
